pIC50: −log10 of the molar value.
A compilation of published pIC50 results with Stearoyl-CoA desaturase (Homo sapiens).
measure: pIC50

>>> meas_value("CS(=O)(=O)c1ccc2[nH]c(-c3ccc(-c4cccs4)cc3)nc2c1")
6.64
>>> meas_value("FC(F)(F)c1ccc(Cl)c(OC2CCN(c3nccnn3)CC2)c1")
7.00
>>> meas_value("O=C(O)Cn1nnc(-c2cnc(N3CC4CN(c5cc(Cl)ccc5Cl)CC4C3)s2)n1 (centres unmarked)")
7.89

---

Several publications report IC50 on UniProt O00767; those values are gathered here.
Note to self: IC50 under 10 nM means t, ties and anything higher get f.

>>> discrete_label("O=C(O)Cn1nnc(-c2nnc(N3CCC4(CCc5c(Cl)cccc5O4)CC3)s2)n1")
"f"
>>> discrete_label("O=C(O)Cn1nnc(-c2cc(N3CCC(C(=O)c4ccc(F)cc4Cl)CC3)no2)n1")
"f"
>>> discrete_label("CS(=O)(=O)c1ccn2cc(-c3ccc(-c4cccc(Cl)c4)cc3)nc2c1")
"f"
>>> discrete_label("O=C(O)Cn1nnc(-c2cnc(N3CC4CN(c5cc(C(F)(F)F)ccc5Br)CC4C3)s2)n1 (stereo not drawn)")
"f"
>>> discrete_label("O=C(O)Cn1nnc(-c2cnc(N3CC4(C3)CN(c3cc(F)ccc3Cl)C4)s2)n1")
"f"
>>> discrete_label("Cn1nccc(NC(=O)N2CCC(Oc3cc(Cl)ccc3Cl)CC2)c1=O")
"f"
>>> discrete_label("Cn1nccc(NCC(=O)N2CCC(Oc3cc(F)ccc3Cl)CC2)c1=O")
"f"
>>> discrete_label("COc1cccc2c1CCC1(CCN(c3nnc(-c4nnn(CC(=O)O)n4)s3)CC1)O2")
"f"
>>> discrete_label("O=C(Nc1ccc2ccccc2c1)c1cnc(N2CC(Oc3cc(F)ccc3Br)C2)cn1")
"f"
>>> discrete_label("O=C(O)Cn1nnc(-c2nnc(N3CCC4(CCc5c(OC(F)(F)F)cccc5O4)CC3)s2)n1")
"t"
>>> discrete_label("O=C(O)Cn1nnc(-c2nnc(N3CCC4(CC3)Cc3ccccc3C(=O)O4)s2)n1")
"f"
>>> discrete_label("Cc1cccc2c1CCC1(CCN(c3ncc(-c4nnn(CC(=O)O)n4)s3)CC1)O2")
"t"
>>> discrete_label("O=C(O)Cn1nnc(-c2cnc(N3CC4CN(c5cc(Cl)cc(F)c5Cl)CC4C3)s2)n1 (stereo not drawn)")
"f"
>>> discrete_label("O=C(O)Cn1nnc(-c2cnc(N3CCC4(CCc5c(cccc5C(F)(F)F)O4)CC3)s2)n1")
"t"
>>> discrete_label("Cn1nccc(CCC(=O)N2CCC(Oc3cc(C(F)(F)F)ccc3Cl)CC2)c1=O")
"f"
>>> discrete_label("O=C(O)Cn1nnc(-c2cnc(N3CCC4(CC3)NC(=O)c3c(Cl)cccc3O4)s2)n1")
"f"
>>> discrete_label("O=C(O)CCc1ccc(NC(=O)c2cnc(N3CC(Oc4cc(F)ccc4Br)C3)cn2)cc1")
"f"

---

pIC50: −log10 of the molar value.
Note to self: these compounds have pIC50 reported for Stearoyl-CoA desaturase (Homo sapiens) in various publications.
measure: pIC50

>>> meas_value("O=C(O)Cn1nnc(-c2cnc(N3CCC4(CCc5ccccc54)CC3)s2)n1")
7.31
>>> meas_value("FC(F)(F)c1ccccc1NC1CCN(c2nccnn2)CC1")
7.52
>>> meas_value("O=C(O)Cn1nnc(-c2cnc(N3CC4(CCN(c5cc(F)ccc5Cl)CC4)C3)s2)n1")
7.35
